Molecular target: Voltage-gated potassium channel subunit beta-2 (Rattus norvegicus)
Test: enhancers of rat Kvbeta2 NADPH turnover – biochemical, NADPH fluorescence, primary screen (AID 623);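 further: fluorescence intensity change per second fitted from 20 to 320 s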
Conditions: Recombinant KvBeta, NADPH fluorescence decrease slope, 10 min; at 10 µM; active compounds read low
The source made the active and inactive calls.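 How the source made its calls: active means NADPH fluorescence slope more negative than the mean of all samples by about 3 SD, 99.7% confidence; inactive means the rest.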
measurement-kind: NADPH fluorescence slope

CC1CCN(CCn2c(=S)[nH]c3ncccc3c2=O)CC1; -3.5e-05 (inactive)
N#Cc1c(NC(=O)c2ccc(Br)o2)n(-c2ccccc2)c2nc3ccccc3nc12; -2e-05 (inactive)
COc1cccc(C2=Nn3c(nnc3-c3ccccc3O)SC2)c1; 2.8e-05 (inactive)

Dear reader, for each entry below, please note its NADPH fluorescence slope.
1. Cn1c(Cc2ccccc2)nnc1SCC(=O)c1ccc(Br)s1
2. Cc1nc2sc(C(c3cccc(F)c3)N3CCCCC3)c(O)n2n1 (centres undefined)
3. O=C(CSCCSCC(=O)c1ccco1)c1ccco1
4. CCCOc1ccccc1C1CC(=O)Nc2cc3c(cc21)OCCO3 (centres undefined)

-1.4e-05 (inactive)
7.3e-06 (inactive)
-6.5e-05 (inactive)
-2e-05 (inactive)

Dear reader, for each entry below, please note its NADPH fluorescence slope.
1. Cc1ccc2c(Cl)cc(Cl)c(OCc3c(C)noc3C)c2n1
2. COCCn1c(C)cc(C(=O)COC(=O)c2n[nH]c3ccccc23)c1C
3. Cc1nc(N)c(C#N)c(-c2cccnc2)c1C
4. Cc1noc(C)c1S(=O)(=O)N1CCN(Cc2ccc3c(c2)OCO3)CC1
5. COc1ccc(C)cc1S(=O)(=O)N1CCN(S(=O)(=O)c2cc(C)ccc2OC)CC1
6. CCC(=O)Nc1ccc(NC(=O)c2cccc(OC)c2)nc1

1: 2.6e-05 (inactive); 2: -4.3e-05 (inactive); 3: 1.8e-05 (inactive); 4: -2e-05 (inactive); 5: -3.9e-05 (inactive); 6: 1.2e-05 (inactive)

Name the recorded NADPH fluorescence slope of the item `Fc1ccc(-c2csc3nnc(SCc4cccnc4)n23)cc1` in your answer.
-2.7e-05 (inactive)

###

Experiment: TLR3 IRF3 reporter activation blockers – cell-based, poly I:C stimulus, luciferase, 10K MLSCN set, primary screen (AID 602277)
Settings: HEK293-TLR3 RL24 IRF3 luciferase reporter, at 10 µM, active compounds read high
measurement-kind: inhibition (%)
Answers are plain numbers, in %.

Here is how some molecules turned out for inhibition.
COC(=O)Cn1c(CN2CCN(c3ccccc3F)CC2)nc2c1c(=O)n(C)c(=O)n2C; 19.6
COc1ccc(Nc2nc(-c3sc(N)nc3C)cs2)cc1; -17.6
CCOC(=O)Cn1nnc(-c2ccc(SC)cc2)n1; 16.7

Dear reader, for each entry below, please note its inhibition.
1. CCc1ccccc1-n1c(SCC(=O)N2CCCC2)nnc1-c1ccccn1
2. CC1CCCCC1NC(=O)c1ccc(N2CCCC2=O)cc1 (stereo not drawn)
3. CCOc1ccc(N(CC(=O)Nc2ccc(C)c(C)c2)S(=O)(=O)c2c(C)noc2C)cc1
4. CCOC(=O)N1CCC2(O)CCCCC2C1c1ccc(F)cc1 (stereo not drawn)
5. COc1cc2c(C#N)c(N3CCOCC3)nc(N)c2c(N)n1
6. COc1ccc(C(=O)N(CCN2CCOCC2)CC(=O)NC2CCCC2)cc1OC

1: 4.38; 2: -5.67; 3: 27.5; 4: 22.6; 5: 46.9; 6: -6.82

Just for reference, PubChem BioAssay is where these values come from.
